test target: recombinant human NKp30 extracellular domain, his-tagged (human) (UniProt O14931)
Sequence (O14931 19-135): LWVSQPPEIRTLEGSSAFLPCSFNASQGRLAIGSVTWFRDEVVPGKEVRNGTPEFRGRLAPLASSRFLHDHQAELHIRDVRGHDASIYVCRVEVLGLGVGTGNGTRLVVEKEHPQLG
assay procedure: BLI, SEEDbody on anti-human Fc sensors, soluble NKp30, 1:1 fit
Listing of entries alongside the reported pKd.
// pKd is dimensionless: -log10 of concentration (M)

>>> observed("VHH16 SEEDbody eff- (bispecific antibody, part only; not given: silenced SEED Fc and cetuximab Fab, V domains shown, not shown: another chain or arm of the molecule; a dimerising Fc or GST; small tags and cut ends) VHH: DVQLQESGGGLVQPGGSLRLSCTASGSIFSSLTMAWWRQAPGKQRELVAGITTDGSTDYADSVKGRFTISRDNAKNTVYLQMDSLKPEDTAVYYCNKSPYYDPTDYDSWGQGTQVTVSS")
9.86
>>> observed("VHH8 SEEDbody eff- (bispecific antibody, part only; not given: silenced SEED Fc and cetuximab Fab, V domains shown, not shown: another chain or arm of the molecule; a dimerising Fc or GST; small tags and cut ends) VHH: DVQLQESGGGLAQPGGSLRLSCAASGFTFSSYDMGWYRQAPGKECELVAAIFSADGSTIYADSVKGRFTISSDNAKNTVFLQMNSLKPEDTAVYYCNKAPPFTTIQPMCVMIDTQLGAWGQGTQVTVSS")
9.49
>>> observed("VHH10 SEEDbody eff- (bispecific antibody, part only; not given: silenced SEED Fc and cetuximab Fab, V domains shown, not shown: another chain or arm of the molecule; a dimerising Fc or GST; small tags and cut ends) VHH: DVQLQESGGGSVQAGGSLRLSCAASGRTFSSNFMGWFRQAPNKDREFVAAIHWSGGSRAYADSVKGRFTISRDNTKDTVYLLVNSLKLEDTAVYYCAAEISWQTTGWTNLGSWGQGTQVTVSS")
9.60

Turning to the following binder.
binder VHH9 SEEDbody eff- (bispecific antibody, part only; not given: silenced SEED Fc and cetuximab Fab, V domains shown, not shown: another chain or arm of the molecule; a dimerising Fc or GST) VHH: DVQLQESGGGLVQAGGSLRLSCAASGRGGASYAMGWFRQAPGKEREFVAAISWTGDTTYNVDSVKGRFTISSDNAKNPVYLDMSSLKPEDTAVYYCAAAHWTRVVAKGAMADEKKYEYWGQGTQVTVSS , pKd observed: 8.30

From: patent US20240287177A1
